Reference source: patent US20040002442A1

- TARGET OR SYSTEM: T1, glucagon receptor present in the plasma membranes isolated from rat liver (rat, UniProt P30082 27-485)
- T1 construct: whole, on cells
- T1 sequence (P30082 27-485): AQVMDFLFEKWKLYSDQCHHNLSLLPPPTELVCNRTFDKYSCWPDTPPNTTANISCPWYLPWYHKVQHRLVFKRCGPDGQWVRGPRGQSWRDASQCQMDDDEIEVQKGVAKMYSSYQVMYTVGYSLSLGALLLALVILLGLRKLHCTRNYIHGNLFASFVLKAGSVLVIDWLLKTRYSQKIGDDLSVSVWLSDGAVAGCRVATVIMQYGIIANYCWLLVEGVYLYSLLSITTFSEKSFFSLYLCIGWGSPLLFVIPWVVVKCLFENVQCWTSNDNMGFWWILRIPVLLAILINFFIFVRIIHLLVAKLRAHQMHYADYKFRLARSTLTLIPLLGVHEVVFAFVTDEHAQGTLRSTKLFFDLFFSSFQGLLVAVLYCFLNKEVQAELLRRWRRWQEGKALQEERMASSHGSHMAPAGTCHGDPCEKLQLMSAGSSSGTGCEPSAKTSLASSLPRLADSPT
- ASSAY COMMENT: 125I-glucagon displacement, rat liver plasma membranes
- Description: Competitive binding of some polypeptides of the invention to rat liver plasma membranes was measured as follows. Ninety-six-well GF/C filtration plates (Millipore, Bedford, Ma.) were blocked with 0.1% PEI for at least one hour and washed twice with binding buffer consisting of 20 mM Tris, 2 mM EDTA, pH 7.5, 1 mg/ml BSA, and 1 mg/ml bacitracin. […] The plates were dried, scintillant was added to each well, and cpm per well determined using a Wallac Microbeta counter.
pIC50: −log10 of the molar value. Ends that are not written are not given here. * marks the point of attachment. Palmitoyl = CCCCCCCCCCCCCCCC(=O)*
# pIC50 >= 7 gives rule met, anything below gives rule not met

{"columns": ["BINDER", "CATEGORY"],
 "data": [
  ["HSQGTFTSDYARYLDARRAREFIKWLVRGRC(PEG22kD) [G2185]", "rule not met"],
  ["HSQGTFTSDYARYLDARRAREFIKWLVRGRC [G185]", "rule met"],
  ["HSQGTFTSDYARYLDARRAREFIK(Palmitoyl)WLVRGRG [G90]", "rule not met"]
]}

Read the next record carefully.
Could you tell me if the measured pIC50 of HSQGTFTSDYARYLDARRAREFIAWLVKGRG [G84] reaches 7 or more? rule met
